Data credit: ChEMBL document CHEMBL4321866

target: von Hippel-Lindau disease tumor suppressor/Androgen receptor (Homo sapiens, UniProt P10275+P40337); experiment: Protac activity against VHL/AR in AR-positive human LNCAP cells assessed as induction of AR degradation at 0.1 uM incubated for 6 hrs by Western blot analysis relative to control; format: cell-based
Sequence (P10275 whole entry, looked up): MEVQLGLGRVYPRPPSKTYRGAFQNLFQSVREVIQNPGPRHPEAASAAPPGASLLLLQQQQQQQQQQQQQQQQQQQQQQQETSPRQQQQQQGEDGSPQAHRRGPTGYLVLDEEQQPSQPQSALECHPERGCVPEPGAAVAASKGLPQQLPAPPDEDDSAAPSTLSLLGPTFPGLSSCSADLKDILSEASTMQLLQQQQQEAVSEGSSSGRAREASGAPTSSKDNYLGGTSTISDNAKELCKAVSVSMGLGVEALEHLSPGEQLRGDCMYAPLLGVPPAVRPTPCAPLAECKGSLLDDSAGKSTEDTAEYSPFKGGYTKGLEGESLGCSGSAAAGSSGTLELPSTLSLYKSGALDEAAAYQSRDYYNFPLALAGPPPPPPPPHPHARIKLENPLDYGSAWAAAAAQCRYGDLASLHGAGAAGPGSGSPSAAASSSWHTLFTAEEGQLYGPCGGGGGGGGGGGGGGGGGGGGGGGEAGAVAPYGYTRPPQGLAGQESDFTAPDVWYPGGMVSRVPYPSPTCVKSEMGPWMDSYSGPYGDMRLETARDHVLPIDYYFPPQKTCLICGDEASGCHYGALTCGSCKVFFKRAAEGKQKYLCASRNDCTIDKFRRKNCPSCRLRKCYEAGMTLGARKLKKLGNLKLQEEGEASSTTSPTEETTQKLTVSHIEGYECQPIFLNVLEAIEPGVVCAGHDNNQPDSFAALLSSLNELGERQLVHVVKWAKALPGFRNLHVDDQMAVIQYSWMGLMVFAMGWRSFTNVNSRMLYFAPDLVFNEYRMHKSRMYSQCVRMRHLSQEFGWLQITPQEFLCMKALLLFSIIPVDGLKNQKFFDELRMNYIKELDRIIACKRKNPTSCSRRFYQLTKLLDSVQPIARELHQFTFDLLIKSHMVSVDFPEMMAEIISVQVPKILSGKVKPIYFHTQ
Sequence (P40337 whole entry, looked up): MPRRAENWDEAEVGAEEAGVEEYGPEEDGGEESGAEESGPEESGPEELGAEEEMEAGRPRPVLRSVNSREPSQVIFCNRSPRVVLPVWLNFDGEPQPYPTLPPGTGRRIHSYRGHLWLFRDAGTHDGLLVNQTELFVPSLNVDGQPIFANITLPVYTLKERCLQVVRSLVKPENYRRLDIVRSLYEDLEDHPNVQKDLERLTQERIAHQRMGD

Entry smiles | Activity
Cc1cc([C@H](C(=O)N2C[C@H](O)C[C@H]2C(=O)N[C@@H](CC(=O)N2CCC(N3CCC(C#Cc4ccc(C(=O)N[C@H]5C(C)(C)[C@H](Oc6ccc(C#N)c(Cl)c6)C5(C)C)cc4)CC3)CC2)c2ccc(-c3scnc3C)cc2)C(C)C)on1 | > 95%
C#Cc1ccc([C@H](CC(=O)N2CCC(N3CCC(C#Cc4ccc(C(=O)N[C@H]5C(C)(C)[C@H](Oc6ccc(C#N)c(Cl)c6)C5(C)C)cc4)CC3)CC2)NC(=O)[C@@H]2C[C@@H](O)CN2C(=O)[C@@H](c2cc(C)no2)C(C)C)cc1 | > 95%
Cc1cc([C@H](C(=O)N2C[C@H](O)C[C@H]2C(=O)N[C@@H](CC(=O)N2CCC(N3CCC(C#Cc4ccc(C(=O)N[C@H]5C(C)(C)[C@H](Oc6ccc(C#N)c(Cl)c6)C5(C)C)cc4)CC3)CC2)c2ccc(Br)cc2)C(C)C)on1 | 76%
Cc1cc([C@H](C(=O)N2C[C@H](O)C[C@H]2C(=O)N[C@@H](CC(=O)N2CCC(N3CC(C#Cc4ccc(C(=O)N[C@H]5C(C)(C)[C@H](Oc6ccc(C#N)c(Cl)c6)C5(C)C)cc4)C3)CC2)c2ccccc2)C(C)C)on1 | 68%
